Readings of pIC50 for the listed molecules
- Tested on: NCI-H1299
- experiment notes: Antiproliferative activity against human H1299 cells assessed as inhibition of cell viability after 72 hrs by CCK-8 assay
- Assay type: functional, cell-based
- applied conditions: NCI-H1299, 72 h
// returns pIC50 (minus log10 of molar concentration), number only

[
  {
    "molecule": "C[S+]([O-])CCCCN=C=S (stereo not drawn)",
    "system": "NCI-H1299",
    "observed property": "pIC50",
    "reported value": 5.12
  },
  {
    "molecule": "CN(C)C(=O)c1cc2cnc(Nc3ccc(NC(=O)CCCCCCCN=C=S)cc3)nc2n1C1CCCC1",
    "system": "NCI-H1299",
    "observed property": "pIC50",
    "reported value": 6.69
  }
]

API: the following record is the query input.
### Prompt Which value of pIC50 has been reported for CN(C)C(=O)c1cc2cnc(Nc3ccc(N4CCNCC4)cn3)nc2n1C1CCCC1 in the records?
### Response 5.63

Taken from ChEMBL document CHEMBL4376814.
